- measured-on: BTK enzyme (recombinant full-length BTK, hBTK) (Homo sapiens)
- Construct: recombinant protein from baculovirus-transfected Sf9 cells: full-length BTK, 6HIS-tag cleaved; 6HIS (cleaved yes); made in house; host or cells: baculovirus-transfected Sf9 cells
- Sequence (Q06187 whole entry): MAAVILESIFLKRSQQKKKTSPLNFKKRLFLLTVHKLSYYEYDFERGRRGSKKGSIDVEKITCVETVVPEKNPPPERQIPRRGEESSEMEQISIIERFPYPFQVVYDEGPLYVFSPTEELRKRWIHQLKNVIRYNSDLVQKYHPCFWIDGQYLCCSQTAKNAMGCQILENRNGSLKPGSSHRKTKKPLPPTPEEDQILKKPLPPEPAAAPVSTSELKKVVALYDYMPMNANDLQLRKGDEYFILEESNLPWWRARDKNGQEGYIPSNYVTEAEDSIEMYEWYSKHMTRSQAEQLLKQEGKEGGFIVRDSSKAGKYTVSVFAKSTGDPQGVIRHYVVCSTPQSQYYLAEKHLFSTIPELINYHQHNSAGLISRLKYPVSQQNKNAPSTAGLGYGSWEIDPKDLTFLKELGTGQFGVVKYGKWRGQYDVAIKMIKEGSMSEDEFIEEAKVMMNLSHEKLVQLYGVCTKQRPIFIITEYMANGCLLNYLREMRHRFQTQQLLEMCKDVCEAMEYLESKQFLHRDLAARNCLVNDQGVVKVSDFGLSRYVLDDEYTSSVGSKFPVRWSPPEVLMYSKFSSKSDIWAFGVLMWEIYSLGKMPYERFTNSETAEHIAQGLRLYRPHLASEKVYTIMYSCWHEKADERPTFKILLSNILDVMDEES
- assay-name: BTK enzyme activity assay, LANCE TR-FRET
- Type: biochemical
- condition-description: 50 pM hBTK, 2 μM biotin-A5-peptide, 25 μM ATP; 60 min compound & enzyme incubation; read-out: IC50 BTK activity value
pIC50: −log10 of the molar value.
This listing pairs molecules with measured pIC50.
assay-metric: pIC50

| molecule | measured-on | number |
| --- | --- | --- |
| CC1(C)C[C@H]2CC[C@H](c3nc(-c4ccc(C(=O)Nc5cc(C(F)(F)F)ccn5)cc4)c4c(N)nccn34)CN2C1=O [Example 94] | BTK enzyme (recombinant full-length BTK, hBTK) (Homo sapiens) | 9.85 |
| Nc1nccn2c([C@@H]3CC[C@H]4CCCN4C3)nc(-c3ccc(C(=O)Nc4cc(C(F)(F)F)ccn4)cc3)c12 [Example 87] | BTK enzyme (recombinant full-length BTK, hBTK) (Homo sapiens) | 9.17 |
| CC(C)(C(=O)O)N1CC(=O)N2C[C@H](c3nc(-c4ccc(C(=O)Nc5cc(C(F)(F)F)ccn5)cc4)c4c(N)nccn34)CC[C@H]2C1 [Example 86] | BTK enzyme (recombinant full-length BTK, hBTK) (Homo sapiens) | 9.35 |
| C[C@H]1OC(=O)N2C[C@H](c3nc(-c4ccc(C(=O)Nc5cc(C(F)(F)F)ccn5)cc4)c4c(N)nccn34)CC[C@@H]12 [Example 49] | BTK enzyme (recombinant full-length BTK, hBTK) (Homo sapiens) | 9.96 |
| Nc1nccn2c([C@@H]3CC[C@H]4CCC(=O)N4C3)nc(-c3ccc(C(=O)Nc4cc(C(F)(F)F)ccn4)cc3C(=O)O)c12 [Example 127] | BTK enzyme (recombinant full-length BTK, hBTK) (Homo sapiens) | 7.08 |
| CCOc1cc(C(=O)Nc2cc(C(F)(F)F)ccn2)ccc1-c1nc([C@@H]2CC[C@H]3CCC(=O)N3C2)n2ccnc(N)c12 [Example 69] | BTK enzyme (recombinant full-length BTK, hBTK) (Homo sapiens) | 9.80 |
